Values compiled from the RNAGym collection of RNA variant scans (doi:10.1126/science.aae0568).

B1: tRNA (parent)
chain: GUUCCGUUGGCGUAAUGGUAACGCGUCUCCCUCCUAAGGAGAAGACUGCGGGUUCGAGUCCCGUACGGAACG

Variants of: B1
Assay: yeast fitness relative to wild type (ratio to wild type); higher = fitter; tRNA-Arg(CCU), competitive growth, 37 C, YPD
Variants at the floor of the assay were thinned out.
quantity_measured: yeast fitness

{"mutant_name": "C24U G48A G63C", "rel": "=", "endpoint_result": 0.768}
{"mutant_name": "A36G A70C", "rel": "=", "endpoint_result": 1.02}
{"mutant_name": "U7G A21U C29A C55A", "rel": "=", "endpoint_result": 0.604}
{"mutant_name": "G39C G44A C62G", "rel": "=", "endpoint_result": 0.589}
{"mutant_name": "G63A C66G", "rel": "=", "endpoint_result": 0.678}
{"mutant_name": "G56C G67C", "rel": "=", "endpoint_result": 0.696}
{"mutant_name": "C11A U28C C29U C34G A36G", "rel": "≤", "endpoint_result": 0.5}
{"mutant_name": "U13C G48C A65G", "rel": "=", "endpoint_result": 0.655}
{"mutant_name": "C34U C66A", "rel": "≤", "endpoint_result": 0.5}
{"mutant_name": "G10C C24A C33G A40G A42G", "rel": "≤", "endpoint_result": 0.5}
{"mutant_name": "A15G C66U", "rel": "=", "endpoint_result": 0.887}
{"mutant_name": "U2A U19G A70U", "rel": "=", "endpoint_result": 0.68}
{"mutant_name": "U19A C27U A57G", "rel": "=", "endpoint_result": 0.725}
{"mutant_name": "C11A C55G A69C", "rel": "≤", "endpoint_result": 0.5}
{"mutant_name": "C5G G6A C30G", "rel": "≤", "endpoint_result": 0.5}
{"mutant_name": "C22A U28G G58C", "rel": "≤", "endpoint_result": 0.5}
{"mutant_name": "C34A A42U G58C C60A C62U", "rel": "=", "endpoint_result": 0.571}
{"mutant_name": "U26G G52A G68U", "rel": "≤", "endpoint_result": 0.5}
{"mutant_name": "G17A C29U", "rel": "=", "endpoint_result": 0.832}
{"mutant_name": "C11U A15U C27G", "rel": "=", "endpoint_result": 0.529}
{"mutant_name": "U16A C60G C61G G68C", "rel": "≤", "endpoint_result": 0.5}
{"mutant_name": "U19A G48A", "rel": "=", "endpoint_result": 1.05}
{"mutant_name": "C31A C33G A45G G48A", "rel": "≤", "endpoint_result": 0.5}
{"mutant_name": "C4G C24U A40U A42C A45U", "rel": "≤", "endpoint_result": 0.5}
{"mutant_name": "U2A U28A A37C C66U", "rel": "≤", "endpoint_result": 0.5}
{"mutant_name": "U3C C5A C34U U35A C49A U54A", "rel": "≤", "endpoint_result": 0.5}
{"mutant_name": "U7G G12A U13C C33U C34U A42C G50A", "rel": "≤", "endpoint_result": 0.5}
{"mutant_name": "C49G U64C", "rel": "=", "endpoint_result": 0.972}
{"mutant_name": "G10C A14C C27A C29G A57C A65U", "rel": "≤", "endpoint_result": 0.5}
{"mutant_name": "G9C G10C C29G", "rel": "≤", "endpoint_result": 0.5}
{"mutant_name": "C22A C24G A36G G39C C55U C66U", "rel": "=", "endpoint_result": 0.513}
{"mutant_name": "C62U C66G A70G", "rel": "=", "endpoint_result": 0.574}
{"mutant_name": "U26C A43U G63A", "rel": "=", "endpoint_result": 0.658}
{"mutant_name": "C62G G63C", "rel": "=", "endpoint_result": 0.588}
{"mutant_name": "C11A C29A U35A A65G", "rel": "≤", "endpoint_result": 0.5}
{"mutant_name": "U8C A21U G67C A69U", "rel": "≤", "endpoint_result": 0.5}
{"mutant_name": "A14U G17A C22U C62A", "rel": "≤", "endpoint_result": 0.5}
{"mutant_name": "C5A C27G C33A A40U G48C U54A", "rel": "=", "endpoint_result": 0.506}
{"mutant_name": "U13A A40C", "rel": "=", "endpoint_result": 0.789}
{"mutant_name": "G6A A57G", "rel": "=", "endpoint_result": 0.929}
{"mutant_name": "G9A A21G C29G C31A C34G", "rel": "≤", "endpoint_result": 0.5}
{"mutant_name": "U16C G25C C34U U64G", "rel": "=", "endpoint_result": 0.585}
{"mutant_name": "U2G G52C C61G", "rel": "≤", "endpoint_result": 0.5}
{"mutant_name": "C4G C5U C55U", "rel": "=", "endpoint_result": 0.544}
{"mutant_name": "U3A G48C U59C", "rel": "=", "endpoint_result": 0.537}
{"mutant_name": "G44C A45G G67A", "rel": "=", "endpoint_result": 0.695}
